Tested on: Wild type
EXPERIMENTAL_DETAILS: S. aureus survival, RN4220 and DeltatarO strains – OD600, teichoic acid synthesis inhibitors, primary screen (AID 463173)
CONDITION_SET: S. aureus RN4220 wild type/DeltatarO growth, OD600, 18 h, screened at 18.75 µg/mL (by protocol)
Out of some 52,000 compounds screened, about 1,700 (3.3%) were called active. Rule as the data show it: active = survival mostly below about 52% (no sharp cut-off); inactive = mostly above about 56%. The full list was thinned out, with actives kept by preference.
Lab note: assign the record to one of active, inactive

- SMILES_TEXT: "CCCN1CCN(C(=O)Cn2ncc3c4ccccc4n(Cc4cccc(Cl)c4)c3c2=O)CC1"
  CAT: "inactive"
- SMILES_TEXT: "Cc1cc(=O)c2c(o1)CC(C)(C)CC2=O"
  CAT: "inactive"
- SMILES_TEXT: "Clc1ccccc1CN1CCN(Cc2ccco2)CC1"
  CAT: "inactive"

Task: // param item: `COc1ccccc1CCNC(=O)c1cc2ccccn2n1` ; yields the recorded call
Result: inactive

Task: Recorded test call requested for `CCn1c2ccccc2c2cc(CN3CCN(Cc4ccccc4Cl)CC3)ccc21`
Result: active

Task: How did this test come out for `CCN(C(=O)CCc1nc(-c2ccc(C)cc2)no1)c1cccc(Cl)c1` ?
Result: active
